As shown below, each of these sequences has a reported sensor-assay potency score (higher = more potent) value.
Target: SLC2A7; further: reference of the scale not given here
Assay: pooled miR-30 sensor sort-seq; sequence = guide strand
Settings: shRNA
// print number alone

SEQUENCE ENTRY	OBSERVED
TTCATCTCCTTTCTGAATCAGG	-0.693
TTTCGTTGTAAAATGACTTGAA	0.429
TTACATATTGGGAGTGAGCGGC	-0.256
TAAATCGCAGTGAGGAGGCAGA	-0.695
TTCTGAATCAGGGAGTAGCGGG	-1.43
TAGTTGATCGCATTGATGCCCG	-0.411

// sample TTGAAGACCTTGTGCGGCGTGT , its sensor-assay potency score (higher = more potent) was -0.139

Source of measurements: the OligoGym collection
